koff overview
EXPERIMENTAL SYSTEM: T1, mature recombinant cynomolgus GDF-15 with an N-terminal Flag and His tag, biotinylated (cynomolgus, UniProt G7PWZ3 197-308, chemically biotinylated with EZ link Sulfo-NHS-LC-Biotin, sites not stated)
T1 construct: not shown: N-terminal Flag and His tags
T1 sequence: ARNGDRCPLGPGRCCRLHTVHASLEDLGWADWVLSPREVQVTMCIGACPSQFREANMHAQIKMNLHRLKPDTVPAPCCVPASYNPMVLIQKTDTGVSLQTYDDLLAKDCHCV
PROCEDURE DETAILS: SPR Biacore 8K, 25 C, biotinylated GDF-15 on streptavidin C1 chip, Fab as analyte
Report only the number, with the unit s⁻¹ understood.

BINDER | UNITS SYMBOL | RECORDED VALUE
AB1170247 Fab (Fab, V domains shown, Fab of the humanized antibody, expressed as in Spooner et al. 2015) VH: QVQLVQSGSELKKPGASVKVSCKASGYTFTSYDINWVRQAPGQGLEWIGWIYPRDGISKYNEKFKGRATLTVDTSASTAYMELSSLRSEDTAVYYCAGTYDPAYFDYWGQGTTVTVSS VL: EIVLTQSPATLSVSPGERATLSCRASQSISYYLHWYQQKPGQAPRLLIKYASQSISGVPDRFSGSGSGTDFTLKISRVEAEDFGVYYCQQSNSWPYTFGGGTKVEIK | s⁻¹ | 0.0686
AB1170241 Fab (Fab, V domains shown, Fab of the humanized antibody, expressed as in Spooner et al. 2015) VH: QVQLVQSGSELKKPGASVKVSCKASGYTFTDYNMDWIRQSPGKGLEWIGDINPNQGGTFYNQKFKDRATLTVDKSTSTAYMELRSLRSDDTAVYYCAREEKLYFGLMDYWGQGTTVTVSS VL: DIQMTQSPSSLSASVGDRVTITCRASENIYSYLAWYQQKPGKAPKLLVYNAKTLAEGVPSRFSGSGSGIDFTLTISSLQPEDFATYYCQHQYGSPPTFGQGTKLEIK | s⁻¹ | 0.00279

Moving on to the next binder.
Incoming: What does the record list as koff for AB1170249 Fab (Fab, V domains shown, Fab of the humanized antibody, expressed as in Spooner et al. 2015) VH: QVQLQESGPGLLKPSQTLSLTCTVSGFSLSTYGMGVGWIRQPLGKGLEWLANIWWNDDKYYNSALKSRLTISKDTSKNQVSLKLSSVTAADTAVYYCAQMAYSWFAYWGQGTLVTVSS VL: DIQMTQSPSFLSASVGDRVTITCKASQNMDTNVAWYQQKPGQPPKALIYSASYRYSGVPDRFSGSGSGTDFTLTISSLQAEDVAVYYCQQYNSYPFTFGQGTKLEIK ?
Outgoing: 0.0129

Source listed as patent US20220281965A1.
